target: Proto-oncogene tyrosine-protein kinase Src (Homo sapiens, UniProt P12931); experiment: Selectivity for Src SH2 domain compared to Cys188Ala Src SH2 domain mutants
Calls of active or inactive are those of the source. The rule behind the calls is not given here.
Outcome codes: 1.0 for active, 0.0 for inactive

molecule	discrete label
CC[C@H](C)[C@H](NC(=O)[C@H](CCC(=O)O)NC(=O)[C@H](CCC(=O)O)NC(=O)CCc1cccc(C(=O)C(O)(O)C(=O)OC)c1)C(N)=O	1.0
CC[C@H](C)[C@H](NC(=O)[C@H](CCC(=O)O)NC(=O)[C@H](CCC(=O)O)NC(=O)C(Cc1ccc(C(=O)C(=O)C(=O)OC)cc1)NC(C)=O)C(N)=O (stereo partly drawn)	1.0
CC[C@H](C)[C@H](NC(=O)[C@H](CCC(=O)O)NC(=O)[C@H](CCC(=O)O)NC(=O)CCc1cccc(C(=O)O)c1)C(N)=O	0.0
